Data provenance is the supplement of paper PMC7877785.

experimentalProtocol: self-splicing fitness, log relative to wild type (ln ratio); higher = more splicing; Tetrahymena group I intron in knt gene, E. coli kanamycin selection, DiMSum; sequences stand for … in CUCUCU…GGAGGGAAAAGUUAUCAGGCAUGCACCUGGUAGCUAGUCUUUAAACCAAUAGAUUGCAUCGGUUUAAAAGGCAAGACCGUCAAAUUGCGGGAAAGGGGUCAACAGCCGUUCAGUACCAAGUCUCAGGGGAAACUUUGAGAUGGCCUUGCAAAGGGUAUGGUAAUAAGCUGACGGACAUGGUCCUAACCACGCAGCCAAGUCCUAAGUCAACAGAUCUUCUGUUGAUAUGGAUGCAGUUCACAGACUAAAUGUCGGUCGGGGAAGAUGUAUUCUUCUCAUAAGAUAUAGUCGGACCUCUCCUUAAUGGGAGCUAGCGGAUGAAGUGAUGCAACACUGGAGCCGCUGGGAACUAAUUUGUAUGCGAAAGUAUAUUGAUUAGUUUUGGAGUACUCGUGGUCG;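 also: selection with 25 µg/mL kanamycin versus none on LB agar overnight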
testContext: 30 °C
measurementName: self-splicing fitness (ln)

- itemSequence: "AAUUAGCAAUAUUACGGGUA"
  value: -1.52
- itemSequence: "GGGAAGCAAUAUUACGAGUC"
  value: -2.56
- itemSequence: "AUAGAGCAAUAUUACGCGCC"
  value: -1.86
- itemSequence: "UCAGAGCAAUAUUACGGGCG"
  value: -2.45
- itemSequence: "UUUGAGCAAUAUUACGUCAA"
  value: -1.66
- itemSequence: "GUAUAGCAAUAUUACGAGUA"
  value: -1.18
- itemSequence: "AUAUAGCAAUAUUACGGAAC"
  value: -2.89
- itemSequence: "UUUCAGCAAUAUUACGGAUG"
  value: -0.64
- itemSequence: "CAUCAGCAAUAUUACGAGGC"
  value: -3.77
- itemSequence: "GGCUAGCAAUAUUACGGUCU"
  value: -2.92
- itemSequence: "UUUUAGCAAUAUUACGUAAU"
  value: -3.62
- itemSequence: "AAUGAGCAAUAUUACGUCUA"
  value: -2.27
- itemSequence: "GUAAAGCAAUAUUACGGAUG"
  value: -2.97
- itemSequence: "UACCAGCAAUAUUACGUAAA"
  value: -0.982
- itemSequence: "CGUAAGCAAUAUUACGGACC"
  value: -0.744
- itemSequence: "AGAGAGCAAUAUUACGUCUA"
  value: -2.48
- itemSequence: "AGUCAGCAAUAUUACGCCUU"
  value: -0.221
- itemSequence: "GGGCAGCAAUAUUACGCUCU"
  value: -3.55
- itemSequence: "AGUAAGCAAUAUUACGAUGG"
  value: -3.99
- itemSequence: "CGCAAGCAAUAUUACGUCGC"
  value: -2.24
- itemSequence: "GAAUAGCAAUAUUACGCUCU"
  value: -1.58
- itemSequence: "GCUAAGCAAUAUUACGGCAU"
  value: -2.13
- itemSequence: "CGCCAGCAAUAUUACGUGAG"
  value: -1.37
- itemSequence: "UAAAAGCAAUAUUACGGUUA"
  value: 0.139
- itemSequence: "AUCUAGCAAUAUUACGUUAC"
  value: -1.99
- itemSequence: "CUGCAGCAAUAUUACGCUCG"
  value: -2.3
- itemSequence: "CUUCAGCAAUAUUACGACUA"
  value: -2.12
- itemSequence: "AGGCAGCAAUAUUACGGAAG"
  value: -2.92

----------
experimentalProtocol: self-splicing fitness, log relative to wild type (ln ratio); higher = more splicing; Tetrahymena group I intron in knt gene, E. coli kanamycin selection, DiMSum; sequences stand for … in CUCUCU…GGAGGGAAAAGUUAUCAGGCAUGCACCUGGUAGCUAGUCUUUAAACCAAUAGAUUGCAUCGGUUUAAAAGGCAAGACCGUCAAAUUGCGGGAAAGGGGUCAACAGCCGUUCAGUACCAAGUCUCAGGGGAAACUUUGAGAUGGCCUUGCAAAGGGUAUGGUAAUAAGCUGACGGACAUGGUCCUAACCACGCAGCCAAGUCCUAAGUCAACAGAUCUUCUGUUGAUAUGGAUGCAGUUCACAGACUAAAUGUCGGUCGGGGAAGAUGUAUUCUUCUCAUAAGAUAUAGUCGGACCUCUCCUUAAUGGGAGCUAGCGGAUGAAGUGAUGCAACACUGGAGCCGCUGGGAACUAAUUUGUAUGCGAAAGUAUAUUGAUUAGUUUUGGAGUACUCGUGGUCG
testContext: 30 °C

- itemSequence: "UAGCAGCAAUAUUACGAAGA"
  self-splicing fitness (ln): -1.64
- itemSequence: "AGACAGCAAUAUUACGUCUA"
  self-splicing fitness (ln): -1.31
- itemSequence: "GCAUAGCAAUAUUACGCGGG"
  self-splicing fitness (ln): -3.23
- itemSequence: "GAGGAGCAAUAUUACGGCAA"
  self-splicing fitness (ln): -2.41
- itemSequence: "CUGUAGCAAUAUUACGUCGG"
  self-splicing fitness (ln): -3.47
- itemSequence: "AAUGAGCAAUAUUACGAACA"
  self-splicing fitness (ln): -1.5
- itemSequence: "UGAAAGCAAUAUUACGGGCU"
  self-splicing fitness (ln): -2.04

----------
experimentalProtocol: self-splicing fitness, log relative to wild type (ln ratio); higher = more splicing; Tetrahymena group I intron in knt gene, E. coli kanamycin selection, DiMSum; sequences stand for … in CUCUCU…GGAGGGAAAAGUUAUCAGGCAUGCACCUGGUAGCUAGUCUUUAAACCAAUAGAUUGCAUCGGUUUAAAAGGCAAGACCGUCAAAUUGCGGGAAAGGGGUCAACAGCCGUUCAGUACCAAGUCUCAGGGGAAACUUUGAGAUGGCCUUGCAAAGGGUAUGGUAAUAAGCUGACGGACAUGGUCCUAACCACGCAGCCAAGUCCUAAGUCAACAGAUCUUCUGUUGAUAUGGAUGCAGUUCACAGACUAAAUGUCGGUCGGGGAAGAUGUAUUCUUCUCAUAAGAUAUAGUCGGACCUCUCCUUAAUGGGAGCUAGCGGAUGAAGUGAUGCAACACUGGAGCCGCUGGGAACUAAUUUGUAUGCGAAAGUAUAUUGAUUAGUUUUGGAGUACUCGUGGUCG
testContext: 37 °C
Please mark condition met if the recorded self-splicing fitness (ln) is equal to or greater than -1, and condition not met if it falls below.

- itemSequence: "AGUAAGCAAUAUUACGGCUU"
  className: "condition met"
- itemSequence: "UACAAGCAAUAUUACGAUUG"
  className: "condition not met"
- itemSequence: "AUCGAGCAAUAUUACGGUAC"
  className: "condition not met"
- itemSequence: "AUCGAGCAAUAUUACGCAGU"
  className: "condition not met"
- itemSequence: "UGGAAGCAAUAUUACGGGAA"
  className: "condition not met"
- itemSequence: "ACAAAGCAAUAUUACGCCCU"
  className: "condition met"
- itemSequence: "AACGAGCAAUAUUACGAUUG"
  className: "condition not met"
- itemSequence: "AUUCAGCAAUAUUACGGGCA"
  className: "condition met"
- itemSequence: "CAUAAGCAAUAUUACGAAAA"
  className: "condition not met"
- itemSequence: "CGUAAGCAAUAUUACGGCAA"
  className: "condition not met"
- itemSequence: "GAACAGCAAUAUUACGGACC"
  className: "condition met"
- itemSequence: "GACUAGCAAUAUUACGUGAC"
  className: "condition not met"
- itemSequence: "UAACAGCAAUAUUACGCUCU"
  className: "condition met"
- itemSequence: "GUCAAGCAAUAUUACGGCGC"
  className: "condition met"
- itemSequence: "CUAAAGCAAUAUUACGCACG"
  className: "condition met"
- itemSequence: "CGGCAGCAAUAUUACGGUUC"
  className: "condition met"
- itemSequence: "GUCAAGCAAUAUUACGAGCG"
  className: "condition not met"
- itemSequence: "GCUUAGCAAUAUUACGAAGA"
  className: "condition met"
- itemSequence: "AGUCAGCAAUAUUACGCCUU"
  className: "condition met"
- itemSequence: "CGAGAGCAAUAUUACGCGGC"
  className: "condition not met"
- itemSequence: "GUUUAGCAAUAUUACGAAUG"
  className: "condition met"
- itemSequence: "ACAAAGCAAUAUUACGUGUA"
  className: "condition not met"
- itemSequence: "UCUUAGCAAUAUUACGGUGC"
  className: "condition not met"
- itemSequence: "UGCAAGCAAUAUUACGGGCC"
  className: "condition not met"
- itemSequence: "GAUCAGCAAUAUUACGCGCG"
  className: "condition met"
- itemSequence: "UUAAAGCAAUAUUACGCCCA"
  className: "condition met"
- itemSequence: "AUCCAGCAAUAUUACGAGGC"
  className: "condition not met"
- itemSequence: "GUCAAGCAAUAUUACGCUAU"
  className: "condition not met"
